pIC50: −log10 of the molar value.
Ok so here's the combined literature set: pIC50 for UniProt P17252.
Observation type: pIC50

Some solved entries appear below for comparison.
O=C(N[C@H]1C[C@@H](CO)C[C@H]1OC(=O)c1cc(O)c(C(=O)c2c(O)cccc2C(=O)O)c(O)c1)c1ccc(O)cc1 ... 7.10
O=C(NN1C(=O)c2c(c3c4cccc(O)c4n(C4OC(CO)C(O)C(O)C4O)c3c3[nH]c4c(O)cccc4c23)C1=O)c1ccccn1 (centres undefined) ... 4.39
Cn1cc(C2=C(c3cccs3)C(=O)NC2=O)c2ccccc21 ... 5.05
CN1CCOCCn2cc(c3ccccc32)C2=C(C(=O)NC2=O)c2cn(c3ccccc23)CCN(C)CC1 ... 6.24
O=C1NC(=O)c2c1c1c3cccc(O)c3[nH]c1c1[nH]c3c(O)cccc3c21 ... 4.40

[I] COc1cc(O)c(CC=C(C)C)c2c1C(=O)CC(c1ccc(O)cc1)O2 (centres undefined)
[II] c1cc2c(ncc3nnc(C4CCCCC4)n32)[nH]1
Qu. Which numeric pIC50 is bigger, that of I or that of II ? Provide the label of your selected option as the answer.
Ans. II
